meta.source: patent US20200270309A1

Assay: Half-lives and pharmacokinetic parameters of polypeptides vs HM-1; note: test concentration or dose not given here
Details: in vivo, T1/2β (half-life)
Peptide text beside a SMILES is read from it. * marks the point of attachment. X23 = O=C1C=CC(=O)N1CCOCCOCCOCCOCCOCCOCCCCC(=O)*; X80 = O=C1C=CC(=O)N1c1ccccc1CCC(=O)*; X8 = O=C1C=CC(=O)N1CCOCCOCCCC(=O)*
Field: half-life. Provide a value for each of the molecules that follow.
Return type: number; implicit unit h.

Briefly, half-life measured for C[C@H](NC(=O)CNC(=O)[C@H](CCCNC(=N)N)NC(=O)CCCOCCOCCN1C(=O)C=CC1=O)C(=O)N[C@@H](CC(=O)O)C(=O)N[C@@H](CCCNC(=N)N)C(=O)N[C@@H](C)C(=O)NCC(=O)NCC(=O)NCC(=O)NCC(=O)N[C@@H](CCCNC(=N)N)C(=O)NCC(=O)N[C@@H](CC(=O)O)C(=O)O [X58] (X8-RGADRAGGGGRGD-OH) : 32.6

Item: C[C@H](NC(=O)CNC(=O)[C@H](CCCNC(=N)N)NC(=O)CCc1ccccc1N1C(=O)C=CC1=O)C(=O)N[C@@H](CC(=O)O)C(=O)N[C@@H](CCCNC(=N)N)C(=O)N[C@@H](C)C(=O)NCC(=O)NCC(=O)NCC(=O)NCC(=O)N[C@@H](CCCNC(=N)N)C(=O)NCC(=O)N[C@@H](CC(=O)O)C(=O)O [X14] (X80-RGADRAGGGGRGD-OH) | half-life: 36

Data point: C[C@H](NC(=O)CNC(=O)[C@H](CCCNC(=N)N)NC(=O)CCCCOCCOCCOCCOCCOCCOCCN1C(=O)C=CC1=O)C(=O)N[C@@H](CC(=O)O)C(=O)N[C@@H](CCCNC(=N)N)C(=O)N[C@@H](C)C(=O)NCC(=O)NCC(=O)NCC(=O)NCC(=O)N[C@@H](CCCNC(=N)N)C(=O)NCC(=O)N[C@@H](CC(=O)O)C(=O)O [X87] (X23-RGADRAGGGGRGD-OH) ; half-life = 41.4
